target: High affinity cAMP-specific 3',5'-cyclic phosphodiesterase 7A (Homo sapiens, UniProt Q13946)
Sequence (Q13946 whole entry): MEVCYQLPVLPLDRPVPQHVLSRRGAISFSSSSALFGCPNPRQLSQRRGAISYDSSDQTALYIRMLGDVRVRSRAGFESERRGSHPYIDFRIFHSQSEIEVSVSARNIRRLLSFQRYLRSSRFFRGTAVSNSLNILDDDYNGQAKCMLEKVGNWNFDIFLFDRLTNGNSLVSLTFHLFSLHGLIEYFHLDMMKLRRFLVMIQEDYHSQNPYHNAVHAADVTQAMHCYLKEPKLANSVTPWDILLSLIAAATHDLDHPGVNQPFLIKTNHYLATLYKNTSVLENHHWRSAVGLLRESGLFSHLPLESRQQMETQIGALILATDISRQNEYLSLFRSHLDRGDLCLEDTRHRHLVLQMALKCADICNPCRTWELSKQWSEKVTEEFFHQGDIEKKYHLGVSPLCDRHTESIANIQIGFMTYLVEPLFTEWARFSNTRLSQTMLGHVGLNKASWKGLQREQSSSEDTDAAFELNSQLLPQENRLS
attribute-measured: pIC50
Scale note: pIC50 = -log10(concentration in M).

Prompt: I am curious: what pIC50 value has been reported for CCCSc1nc2c(c(=O)n1-c1ccc(C)cc1)SCC2 ?
Completion: 4.67

* * *

target: Cone cGMP-specific 3',5'-cyclic phosphodiesterase subunit alpha' (Homo sapiens, UniProt P51160); test: In Vitro Enzyme Assay
Sequence (P51160 whole entry): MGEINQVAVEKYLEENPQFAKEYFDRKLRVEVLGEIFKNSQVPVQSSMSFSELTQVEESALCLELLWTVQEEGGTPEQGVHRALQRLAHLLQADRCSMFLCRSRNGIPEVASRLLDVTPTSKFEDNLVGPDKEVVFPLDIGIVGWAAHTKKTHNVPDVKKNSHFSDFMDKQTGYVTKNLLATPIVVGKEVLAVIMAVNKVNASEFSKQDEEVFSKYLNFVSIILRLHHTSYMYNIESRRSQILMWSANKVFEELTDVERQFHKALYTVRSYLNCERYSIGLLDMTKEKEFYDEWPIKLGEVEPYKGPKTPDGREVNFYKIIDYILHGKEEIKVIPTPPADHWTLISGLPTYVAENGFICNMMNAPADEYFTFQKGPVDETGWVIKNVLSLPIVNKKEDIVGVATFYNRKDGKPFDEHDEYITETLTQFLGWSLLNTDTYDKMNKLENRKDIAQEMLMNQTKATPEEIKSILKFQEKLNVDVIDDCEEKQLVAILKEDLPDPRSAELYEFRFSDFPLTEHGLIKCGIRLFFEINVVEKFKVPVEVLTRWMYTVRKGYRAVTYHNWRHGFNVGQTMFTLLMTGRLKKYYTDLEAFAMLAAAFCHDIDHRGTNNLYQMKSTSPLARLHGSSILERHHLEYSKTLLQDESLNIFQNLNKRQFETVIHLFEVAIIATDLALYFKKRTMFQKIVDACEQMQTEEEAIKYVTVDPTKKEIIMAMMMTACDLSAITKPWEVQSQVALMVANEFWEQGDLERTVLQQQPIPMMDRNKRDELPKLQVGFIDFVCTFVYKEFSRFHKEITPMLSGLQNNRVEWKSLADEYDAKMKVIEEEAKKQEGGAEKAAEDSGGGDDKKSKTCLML
attribute-measured: pIC50
Scale note: pIC50 = -log10(concentration in M).

Prompt: I am curious: what pIC50 value has been reported for CCC(C)Sc1nc2c(c(=O)n1-c1ccccc1)SCC2 (stereo unspecified) ?
Completion: 4.29
